# Read-out: Matrix Metallopeptidase 1 (MMP1), MMP1 (gene 4312)
# assay_remarks: BSK_BE3C_MMP1: BioMAP Diversity Plus: BE3C Assay for Matrix Metallopeptidase 1 (MMP1) Biomarker Activity (AID 2283024)
# assay_conditions: primary human bronchial epithelial cells; actives raise or lower the signal
Calls of active or inactive are those of the source. Rule for the calls: active = hit-call score of the fitted dose curve at least 0.9, where 1 is the maximum; inactive = score below 0.9.
Outcome codes: label 1 (active), label 0 (inactive)

compound	qualitative_label
CCCCC(CC)COC(=O)CCCCCCCCC(=O)OCC(CC)CCCC (centres undefined)	label 0
CCCCCCCCCCCCc1ccccc1	label 0
COc1ccc2sc(C(=O)Nc3nnn[nH]3)c(OC(C)C)c2c1	label 1
Cn1cnc([N+](=O)[O-])c1Sc1ncnc2nc[nH]c12	label 0

Cited source for all entries: PubChem BioAssay (EPA / NIEHS)
